Listed below are compounds with IC50 for UniProtKB O70536, each taken from published literature.
RECORDED_METRIC: IC50 (µM)

COMPOUND	RECORDED_METRIC	UNIT_TAG	ASSAY_VALUE
CCSc1nc(-c2ccccc2)c(-c2ccccc2)[nH]1	IC50	µM	0.77
CCCCCCCCCCN(CCCCCCCCCC)S(=O)(=O)NC(=O)Nc1c(C(C)C)cccc1C(C)C	IC50	µM	0.72
COc1cccc(C(Cc2ccccc2)NC(=O)C(c2ccccc2)c2ccccc2)c1 (configuration not stated)	IC50	µM	1.5
CCCCCCCN(CCCCCSc1nc(-c2ccccc2)c(-c2ccccc2)[nH]1)C(=O)NCCC	IC50	µM	0.01
CCCCCCCN(CCCCCSc1nc(-c2ccccc2)c(-c2ccccc2)[nH]1)C(=O)CCC	IC50	µM	0.03

1. O=C1CCC(CSc2nc(-c3ccccc3)c(-c3ccccc3)[nH]2)N1 (configuration not stated)
2. CCCCCCCCCCCCc1cc(C2(C(=O)Nc3c(OC)cc(OC)cc3OC)CCCC2)no1
3. CCCCCCCCCCCCc1cc(C(C(=O)Nc2c(OC)cc(OC)cc2OC)c2ccccc2)no1 (configuration not stated)
4. CCCCCCCCCn1nc(-c2ccccc2)c(-c2ccccc2)cc1=O
input: Put the items in order so that reported IC50 rises from first to last. Submit the labels in the order that the ranking request calls for.
output: 3, 2, 1, 4
(3: 0.022 µM, 2: 0.1 µM, 1: 0.36 µM, 4: 85 µM)

P. CCCCCCCN(CCCCCSc1nc(-c2ccccc2)c(-c2ccccc2)[nH]1)C(=O)Cc1ccc(F)cc1F
Q. O=C1c2c(c(=O)n3nc(-c4ccccc4)cc3n2Cc2ccccc2)CN1C1CCCCC1
input: P or Q : whose IC50 is greater? Use the label to indicate which entry you chose.
output: Q

I. CCCCCCCn1nc(-c2ccccc2)c(-c2ccccc2)cc1=O
II. O=C(Nc1ccc(F)cc1F)N(CCCCCSc1nc(-c2ccccc2)c(-c2ccccc2)[nH]1)Cc1ccccc1
III. O=C(Cn1c2c(c(=O)n3nc(-c4ccccc4)cc13)CN(C1CCCCC1)C2=O)c1cccc([N+](=O)[O-])c1
input: Your job: order these 3 records by IC50, ascending. Return the labels ranked in the requested order, please.
output: II, III, I

###

Multi-source literature compilation: IC50 on Sterol O-acyltransferase 1 (Rattus norvegicus, UniProt O70536).
Sequence (O70536 whole entry): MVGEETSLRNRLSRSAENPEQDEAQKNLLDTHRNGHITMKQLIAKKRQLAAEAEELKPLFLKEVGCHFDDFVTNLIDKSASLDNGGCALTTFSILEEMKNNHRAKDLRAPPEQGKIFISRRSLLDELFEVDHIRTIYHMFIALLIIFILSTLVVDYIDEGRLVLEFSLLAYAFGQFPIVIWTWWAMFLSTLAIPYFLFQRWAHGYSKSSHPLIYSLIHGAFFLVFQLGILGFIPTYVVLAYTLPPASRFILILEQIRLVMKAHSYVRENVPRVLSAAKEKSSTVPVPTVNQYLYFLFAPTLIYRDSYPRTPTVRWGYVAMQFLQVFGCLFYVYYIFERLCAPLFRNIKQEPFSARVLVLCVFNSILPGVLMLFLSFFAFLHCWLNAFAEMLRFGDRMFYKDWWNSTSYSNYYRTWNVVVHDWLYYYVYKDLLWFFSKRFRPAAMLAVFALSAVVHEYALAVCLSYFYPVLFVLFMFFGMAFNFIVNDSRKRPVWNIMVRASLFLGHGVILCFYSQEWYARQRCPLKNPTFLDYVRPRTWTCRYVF
RECORDED_METRIC: IC50 (nM)

Recorded results for 3 molecules are shown here.
MOLECULE	IC50 [nM]
Cc1ccc2ncc(NC(=O)Nc3ccc(F)cc3F)c(-c3ccccc3Cl)c2c1	16.8
C[C@@]1(O)CC(=O)OC(CSc2nc(-c3ccc(F)cc3)c(-c3ccc(F)cc3)[nH]2)C1 (some centres undefined)	790
CO[C@@H]1C[C@@](C)(O)C[C@H](CSc2nc(-c3ccccc3)c(-c3ccccc3)[nH]2)O1	82

1. CCCCCCSc1cc(-c2ccccc2)c(-c2ccccc2)nn1
2. CCCCCCCN(CCCCCCc1nc(-c2ccccc2)c(-c2ccccc2)[nH]1)C(=O)Nc1ccc(F)cc1F
3. O=C(Nc1ccc(F)cc1F)Nc1cnc2ccc(Cl)cc2c1-c1ccccc1Cl
input: Given 3 molecules, produce a descending ranking by IC50. Lab note: final answer is the ordered label list.
output: 1, 2, 3
(1: 62000 nM, 2: 280 nM, 3: 21.2 nM)

P. CCCCCCCN(CCCCCNc1cc(-c2ccccc2)c(-c2ccccc2)nn1)C(=O)Nc1ccc(F)cc1F
Q. CC(C)c1ccc(-c2nc(SC[C@H]3C[C@@](C)(O)CC(=O)O3)[nH]c2-c2ccc(C(C)C)cc2)cc1.CC(C)c1ccc(-c2nc(SC[C@H]3C[C@](C)(O)CC(=O)O3)[nH]c2-c2ccc(C(C)C)cc2)cc1
input: Which numeric IC50 is bigger, that of P or that of Q ? Select an item and report its label.
output: P
(P: 2320 nM, Q: 230 nM)

I. CCCCCCS(=O)(=O)c1cc(-c2ccccc2)c(-c2ccccc2)nn1
II. O=C1CCCC(CSc2nc(-c3ccccc3)c(-c3ccccc3)[nH]2)O1 (centres undefined)
input: Compare I and II by numeric IC50 and name the larger one. Reply briefly: the label of your chosen item.
output: I

1. CC(C)c1cccc(C(C)C)c1OS(=O)(=O)NC(=O)Oc1c(C(C)(C)C)cc(C(C)(C)C)cc1C(C)(C)C
2. O=C(Nc1ccc(F)cc1F)N(CCCCCSc1nc(-c2ccccc2)c(-c2ccccc2)[nH]1)CCCc1ccccc1
input: Higher IC50 between 1 and 2 ? Indicate your choice by writing its label.
output: 1
(1: 26000 nM, 2: 30 nM)
